protocolNotes: Solubility at pH 7.4
Format: physicochemical

# compound, measurementQualifier, Sol @ pH 7.4 / ug/mL
measured = [
    ("CNC(=O)c1ccc(-n2c(=O)ccc3cnc4ccc(-c5ccc(CN(C)C)cc5)cc4c32)cc1 [Compound 174]", ">", 68.00),
    ("NC1(c2ccc(-c3ccc4ncc5ccc(=O)n(-c6ccc(C(=O)N7CCOCC7)cc6)c5c4c3)cc2)CCC1 [Compound 181]", "=", 17.3),
    ("NCc1ccc(-c2ccc3ncc4ccc(=O)n(-c5ccc(C(=O)N6CCOCC6)cc5)c4c3c2)cc1 [Compound 111]", "=", 19.8),
    ("Cn1c(=O)n(-c2cccc(C#N)c2)c2c3cc(-c4ccc(F)cc4)ccc3ncc21 [Compound 402]", "=", 1.9),
    ("O=C(c1ccc(-n2c(=O)ccc3cnc4ccc(-c5ccc(Cl)cc5)cc4c32)cc1C(F)(F)F)N1CCOCC1 [Compound 126]", "<", 1.0),
    ("CCNC(=O)c1cc(-c2ccc3ncc4ccc(=O)n(-c5ccc(C(=O)N6CCOCC6)cc5)c4c3c2)ccc1Cl [Compound 150]", "=", 3.9),
    ("CN(C)CC#Cc1ccc2ncc3ccc(=O)n(-c4ccc(C(=O)N5CCOCC5)cc4)c3c2c1 [Compound 218]", ">", 69),
]
